Measured melting point, listed per entry for reference.

smi: CNC(=O)C[C@H]1CC[C@H](CCN2CCN(c3ccccc3F)CC2)CC1
melting point: 165 to 166 °C
--
smi: O=C(C[C@H]1CC[C@H](CCN2CCN(c3ccccc3F)CC2)CC1)NCC(F)(F)F
melting point: 158 to 159 °C

// lookup melting point for N#CCC(=O)N[C@H]1CC[C@H](CCN2CCN(c3cccc(Cl)c3)CC2)CC1
186 to 187 °C

// lookup melting point for COc1ccc(OC)c(N2CCN(CC[C@H]3CC[C@H](NC(=O)CC#N)CC3)CC2)c1
171 to 173 °C

====

experimental.endpoint: melting point (°C)
Write down the numeric answer in °C and omit the unit.

smi: CC(=O)CN1CCC(CCN2CCN(c3ccc(F)cc3C)CC2)CC1.Cl.Cl
melting point [°C]: 283

smi: O=C(CC(F)(F)F)N[C@H]1CC[C@H](CCN2CCN(c3ccccc3)CC2)CC1
melting point [°C]: 185

smi: CC(=O)CN1CCC(CCN2CCN(c3cc(C)ccc3Cl)CC2)CC1.Cl.Cl
melting point [°C]: 283

Now for another entry.
// lookup melting point for CC(=O)CN1CCC(CCN2CCN(c3cc(C(C)(C)C)cc(C(C)(C)C)c3)CC2)CC1.Cl.Cl
308

====

experimental.endpoint: melting point (°C)
Write down the numeric answer in °C and omit the unit.

molecule: N#CCCCC(=O)N[C@H]1CC[C@H](CCN2CCN(c3ccc(Cl)cc3Cl)CC2)CC1
experimental.endpoint: melting point
unit.descriptor: °C
reported.value: 162

molecule: COc1ccc(C)cc1N1CCN(CC[C@H]2CC[C@H](NC(=O)CC#N)CC2)CC1
experimental.endpoint: melting point
unit.descriptor: °C
reported.value: 178

Now for another entry.
// lookup melting point for COCC(=O)N[C@H]1CC[C@H](CCN2CCN(c3ccccc3C#N)CC2)CC1
113

====

experimental.endpoint: melting point (°C)
Write down the numeric answer in °C and omit the unit.

Some solved cases for reference:
smi: N#CCCC(=O)N[C@H]1CC[C@H](CCN2CCN(c3cccc(C#N)c3)CC2)CC1
unit.descriptor: °C
reported.value: 160
--
smi: N#CCC(=O)N[C@H]1CC[C@H](CCN2CCN(c3ccc(F)c(C#N)c3)CC2)CC1
unit.descriptor: °C
reported.value: 185
--
smi: Cc1ccc(N2CCN(CC[C@H]3CC[C@H](NC(=O)CC(F)(F)F)CC3)CC2)cc1Cl
unit.descriptor: °C
reported.value: 192

// lookup melting point for N#CCCC(=O)N[C@H]1CC[C@H](CCN2CCN(c3cc(F)cc(Cl)c3)CC2)CC1
148

====

Measured melting point, listed per entry for reference.
Write down the numeric answer in °C and omit the unit.

smi: O=C(N[C@H]1CC[C@H](CCN2CC=C(c3ccccc3F)CC2)CC1)C1=CCCC1
unit.descriptor: °C
melting point: 192

smi: N#CCCCC(=O)N[C@H]1CC[C@H](CCN2CCN(c3cc(F)c(F)c(F)c3)CC2)CC1
unit.descriptor: °C
melting point: 156

Now for another entry.
// lookup melting point for Cc1ccc(N2CCN(CC[C@H]3CC[C@H](NC(=O)CC#N)CC3)CC2)cc1Cl
220

====

Measured melting point, listed per entry for reference.

Some solved cases for reference:
smi: COc1ccc(C)c(N2CCN(CC[C@H]3CC[C@H](NC(=O)CC#N)CC3)CC2)c1
melting point: 178 to 180 °C

smi: CC(=O)CN1CCC(CCN2CCN(c3ccccc3CC(C)C)CC2)CC1.Cl.Cl
melting point: 285 °C

Now for another entry.
// lookup melting point for CC(=O)CN1CCC(CCN2CCN(c3cc(Cl)c(Cl)cc3F)CC2)CC1.Cl.Cl
309 °C (dec.)

Source: patent US8802678B2
